experiment: Mouse pharmacokinetics, intravenous or oral 10 mg/kg (Table 9); type: in vivo; details: po, mice, p.o., plasma, read-out: Elimination Half life (converted)
Property: half-life; scope: individual molecules
Write the numeric value and append its unit.

Check out these entries, answers already filled in.
* Cc1c(-c2ccc(N)nc2)ccn2c(=O)c(C(=O)[O-])cc(C3CC3)c12.[K+] [Ex. 21 K salt] | 2.11 h
* Cc1c(-c2ccc3[nH]ncc3c2)ccn2c(=O)c(C(=O)[O-])cc(C3CC3)c12.[K+] [Ex. 23 K salt] | 0.988 h
* Cc1c(-c2cc(F)c(N)cc2F)ccn2c(=O)c(C(=O)[O-])cc(C3CC3)c12.[K+] [Ex. 28 K salt] | 3.33 h
* Cc1c(-c2ccc(N)c(F)c2)ccn2c(=O)c(C(=O)[O-])cc(C3CC3)c12.[K+] [Ex. 2 K salt] | 1.51 h

Here is the next item to consider.
// field: half-life; key: Cc1c(-c2ccc(O)cc2)ccn2c(=O)c(C(=O)[O-])cc(C3CC3)c12.[K+] [Ex. 46 K salt] ; value = 4.16 h

---

Recorded MIC50 for the following compounds
system: Group C Streptococcus (4 strains); assay: MIC range, broader panel of Quotient Bioresearch strains (Table 3); conditions: read-out: MIC Range Median, Group C Streptococcus (4 strains)
The figure you give is taken to be in µg/mL; do not add the unit.

• Cc1c(-c2ccc(O)cc2)ccn2c(=O)c(C(=O)[O-])cc(C3CC3)c12.[K+] [Example 46 K salt] = 0.045
• Cc1c(-c2ccc(N)cc2)c(F)cn2c(=O)c(C(=O)[O-])cc(C3CC3)c12.[K+] [Example 5 K salt] = 0.06
• Cc1c(-c2ccc(N)c(F)c2)ccn2c(=O)c(C(=O)[O-])cc(C3CC3)c12.[K+] [Example 2 K salt] = 0.06
• Cc1c(-c2ccncc2)ccn2c(=O)c(C(=O)[O-])cc(C3CC3)c12.[K+] [Example 16 K salt] = 0.25

Next compound, MIC50 to be filled in.
Memo: Cc1c(-c2cc(F)c(N)cc2F)ccn2c(=O)c(C(=O)[O-])cc(C3CC3)c12.[K+] [Example 28 K salt] , reported MIC50: 0.045

---

test system: Escherichia coli (6 strains); experiment: MIC range, broader panel of Quotient Bioresearch strains (Table 4); type: cell-based; details: read-out: MIC Range Low, Escherichia coli (6 strains)
MEASUREMENT TYPE: MIC (µg/mL)
Please respond with the number in µg/mL and leave the unit unwritten.

// Cc1c(-c2ccc(C(N)=O)cc2)c(F)cn2c(=O)c(C(=O)[O-])cc(C3CC3)c12.[K+] [Example 6 K salt] : MIC value = 0.25

Kindly note the recorded MIC for Cc1c(-c2ccc(N)c(F)c2)c(F)cn2c(=O)c(C(=O)[O-])cc(C3CC3)c12.[K+] [Example 1 K salt] , which is 0.06

---

test system: Enterococcus faecalis (5 strains); assay: MIC range, broader panel of Quotient Bioresearch strains (Table 3); settings: read-out: MIC Range Median, Enterococcus faecalis (5 strains)
MEASUREMENT TYPE: log10 of MIC50 (log10 of the value in µg/mL)
// stored as log10 of MIC50 expressed in µg/mL

- Cc1c(-c2ccncc2)ccn2c(=O)c(C(=O)[O-])cc(C3CC3)c12.[K+] [Example 16 K salt]: -0.60
- Cc1c(C2=CCNCC2)ccn2c(=O)c(C(=O)O)cc(C3CC3)c12 [Example 42]: 0.60
- Cc1c(-c2ccc(N)cc2)c(F)cn2c(=O)c(C(=O)[O-])cc(C3CC3)c12.[K+] [Example 5 K salt]: -1.22
- Cc1c(-c2ccc(N)c(F)c2)ccn2c(=O)c(C(=O)[O-])cc(C3CC3)c12.[K+] [Example 2 K salt]: -1.52
- Cc1c(-c2ccc(N)nc2)ccn2c(=O)c(C(=O)[O-])cc(C3CC3)c12.[K+] [Example 21 K salt]: -0.92
- Cc1c(-c2ccc(N)c(F)c2)c(F)cn2c(=O)c(C(=O)[O-])cc(C3CC3)c12.[K+] [Example 1 K salt]: -0.92

// sample Cc1c(-c2ccc(C(N)=O)cc2)c(F)cn2c(=O)c(C(=O)[O-])cc(C3CC3)c12.[K+] [Example 6 K salt] , its log10 of MIC50 was -0.60

The reported log10 of MIC50 of the molecule Cc1c(-c2ccc(CN)cc2)ccn2c(=O)c(C(=O)[O-])cc(C3CC3)c12.[K+] [Example 31 K salt] was -0.92
